Assign relative viability to each entry below.
Tested on: UMB1949 (TSC2-deficient);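 further: renal angiomyolipoma cell lines screened in 384-well plates, viability normalized per plate to DMSO-treated cells, each plate carrying 50 nM rapamycin and 1 µM staurosporine controls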
Experiment: relative viability vs DMSO (fraction); higher = less cytotoxic
Details: 1.6 nM; serum: 0.1% FBS; 72 h
API doc: respond with a numeric literal and nothing else, no unit.

Documented relative viability of CO[C@H]1C[C@@H]2CC[C@@H](C)[C@@](O)(O2)C(=O)C(=O)N2CCCC[C@H]2C(=O)O[C@H]([C@H](C)C[C@@H]2CC[C@@H](OCCO)[C@H](OC)C2)CC(=O)[C@H](C)/C=C(\C)[C@@H](O)[C@@H](OC)C(=O)[C@H](C)C[C@H](C)/C=C/C=C/C=C/1C [Everolimus(RAD001)] : 0.9

Documented relative viability of CN1CC[C@H](c2c(O)cc(O)c3c(=O)cc(-c4ccccc4Cl)oc23)[C@H](O)C1 [Flavopiridol(Alvocidib)] : 1.21

Documented relative viability of Nc1ccn([C@@H]2O[C@H](CO)[C@@H](O)[C@@H]2O)c(=O)n1 : 0.962
